IC50 reference
Molecular target: His-EBNA1 (DNA binding domain of EBNA1, amino acids 459-607) (Epstein-Barr virus, UniProt P03211)
Sequence (P03211 459-607): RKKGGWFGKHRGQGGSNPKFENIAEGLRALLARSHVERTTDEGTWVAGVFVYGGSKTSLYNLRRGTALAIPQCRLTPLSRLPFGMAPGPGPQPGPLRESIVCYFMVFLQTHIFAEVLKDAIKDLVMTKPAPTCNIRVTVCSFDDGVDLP
Measure name: IC50

compound=COc1ccc(C#Cc2cccc(C(=O)O)c2-c2ccc3[nH]c(C(=O)O)cc3c2)cc1 test_value="10 to 100 µM"
compound=Cn1ncc2ccc(-c3c(C#Cc4c[nH]c5ncccc45)cccc3C(=O)O)cc21 test_value="10 to 100 µM"
compound=O=C(O)c1cccc(CCc2ccc(F)cc2)c1-n1cccc1 test_value="10 to 100 µM"
compound="O=C(O)c1cccc(C#CC(O)c2ccccc2)c1-c1ccc2cc[nH]c2c1 (stereo not shown)" test_value="< 1 µM"
compound=COc1ccc(C#Cc2cccc(C(=O)O)c2)cc1 test_value="100 to 1000 µM"
compound=O=C(O)c1cccc(C#Cc2ccccc2)c1F test_value="1 to 10 µM"
compound=NC(=O)c1cccc(-c2c(C#Cc3cccc(O)c3)cccc2C(=O)O)c1 test_value="10 to 100 µM"
compound=O=C(O)c1cccc(C#CCCO)c1-c1ccc2cc[nH]c2c1 test_value="< 1 µM"
compound=O=C(O)c1cccc(C#Cc2cncs2)c1-n1cccc1 test_value="10 to 100 µM"
compound=O=C(O)c1cccc(/C=C/c2ccccc2)c1-n1cccc1 test_value="10 to 100 µM"
compound=CS(=O)(=O)Nc1cccc(C#Cc2cccc(C(=O)O)c2-n2cccc2)c1 test_value="< 1 µM"
compound=O=C(O)c1cccc(C#Cc2cccc(CO)c2)c1-n1cccc1 test_value="< 1 µM"
compound=CNC(=O)c1cccc(C#Cc2cccc(C(=O)O)c2)c1 test_value="10 to 100 µM"
compound=O=C(O)c1cccc(C#Cc2cccc(CNS(=O)(=O)c3cc(F)cc(F)c3)c2)c1-n1cccc1 test_value="1 to 10 µM"
compound=O=C(O)c1cccc(C#Cc2ccc(F)cc2F)c1-c1ccc2cc[nH]c2c1 test_value="1 to 10 µM"
compound=NC(=O)c1ccc(C#Cc2cccc(C(=O)O)c2-c2ccc3cc[nH]c3c2)cc1 test_value="1 to 10 µM"
compound=Nc1c(C#Cc2ccc3cc[nH]c3c2)cccc1C(=O)O test_value="< 1 µM"
compound=O=C(O)c1cccc(C#Cc2cccc(O)c2)c1-c1ccc2cc[nH]c2c1 test_value="< 1 µM"
compound=O=C(O)c1cccc(C#Cc2cccc(O)c2)c1-c1ccc2c(c1)NCC2 test_value="1 to 10 µM"

---

Biological target: His-EBNA1 (DNA binding domain of EBNA1, amino acids 459-607) (Epstein-Barr virus, UniProt P03211)
Where a name gives a salt, the structure may show the parent alone.
Measure name: IC50

compound="O=C(O)c1cccc(C#CCCCO)c1-n1cccc1 [Entry 66]" test_value="< 1 µM"
compound="NS(=O)(=O)NC(=O)c1cccc(C#Cc2ccccc2)c1-n1cccc1 [Entry 118]" test_value="10 to 100 µM"
compound="Cc1ccc(C#Cc2cccc(C(=O)O)c2-n2c(C)ccc2C)cc1 [Entry 21]" test_value="< 1 µM"
compound="O=C(O)c1cccc(C#Cc2ccc(N3CCOCC3)cc2)c1-c1ccc2cc[nH]c2c1 [Entry 226]" test_value="10 to 100 µM"
compound="O=C(O)c1cccc(C#Cc2ccccc2)c1-n1ccc2ccccc21 [Entry 299]" test_value="1 to 10 µM"
compound="O=C(O)c1cccc(C#Cc2ccccc2)c1-c1cccc(CO)c1 [Entry 128]" test_value="10 to 100 µM"
compound="O=C(O)c1cc2ccc(-c3c(C#Cc4ccccc4)cccc3C(=O)O)cc2[nH]1 [Entry 250]" test_value="1 to 10 µM"
compound="CN(C)c1ccc(-c2c(C#Cc3ccccc3)cccc2C(=O)O)cn1 [Entry 127]" test_value="10 to 100 µM"
compound="O=C(O)c1cccc(C#Cc2cnc3cnccn23)c1F [Entry 87]" test_value="< 1 µM"
compound="O=C(O)c1cccc(C#Cc2ccc(NS(=O)(=O)c3cccs3)cc2)c1-c1ccc2cc[nH]c2c1 [Entry 216]" test_value="1 to 10 µM"
compound="CS(=O)(=O)Nc1cccc(-c2c(C#Cc3ccccc3)cccc2C(=O)O)c1 [Entry 134]" test_value="1 to 10 µM"
compound="O=C(O)c1cccc(C#Cc2c[nH]c3ncccc23)c1F [Entry 86]" test_value="10 to 100 µM"
compound="O=C(O)c1cccc(C#Cc2cccc(O)c2)c1-c1ccc2c(c1)OCO2 [Entry 242]" test_value="10 to 100 µM"
compound="O=C(O)c1cccc(C#CCN2CCCC2)c1-c1ccccc1 [Entry 160]" test_value="10 to 100 µM"
compound="O=C(O)c1cccc(C#Cc2ccccc2)c1C1=CCNCC1 [Entry 96, trifluoroacetic acid salt]" test_value="1 to 10 µM"
compound="Nc1c(C#Cc2cccc3[nH]ccc23)cccc1C(=O)O [Entry 79]" test_value="< 1 µM"
compound="O=C(O)c1cncc(C#Cc2ccccc2)c1-n1cccc1 [Entry 52]" test_value="10 to 100 µM"
compound="O=C(O)c1cccc(C#CCNc2ccc3[nH]cnc3c2)c1-c1ccccc1 [Entry 262, trifluoroacetate salt]" test_value="1 to 10 µM"
compound="O=C(O)c1cccc(C#Cc2ccccc2)c1-c1ccc(CO)cc1 [Entry 130]" test_value="10 to 100 µM"
compound="O=C(O)c1cccc(C#Cc2cccc(NS(=O)(=O)c3cccs3)c2)c1-c1ccc2cc[nH]c2c1 [Entry 235]" test_value="< 1 µM"
compound="O=C(O)c1cccc(C#Cc2ccncc2)c1-n1ccc2ccccc21 [Entry 291]" test_value="10 to 100 µM"
compound="O=C(NS(=O)(=O)N1CCOCC1)c1cccc(C#Cc2ccccc2)c1-n1cccc1 [Entry 115]" test_value="100 to 1000 µM"
compound="O=C(O)c1cccc(C#Cc2c[nH]c3ncccc23)c1 [Entry 76]" test_value="10 to 100 µM"
compound="O=C(O)c1cccc(C#Cc2cccc(O)c2)c1-c1ccc2c(Cl)c[nH]c2c1 [Entry 221]" test_value="1 to 10 µM"
compound="Cc1ccc(C)n1-c1c(C#Cc2ccncc2)cccc1C(=O)O [Entry 192]" test_value="10 to 100 µM"
compound="O=C(O)c1cccc(C#Cc2cccc(OC(F)F)c2)c1-n1cccc1 [Entry 46]" test_value="1 to 10 µM"
compound="Cc1noc(C)c1-c1c(C#Cc2ccccc2)cccc1C(=O)O [Entry 154]" test_value="1 to 10 µM"
compound="O=C(O)c1cccc(C#Cc2ccccc2)c1-c1ccc2nc[nH]c2c1 [Entry 150]" test_value="10 to 100 µM"
compound="O=C(O)c1cccc(C#Cc2ccccc2)c1OCc1ccccc1 [Entry 155]" test_value="10 to 100 µM"
compound="O=C(O)c1cccc(C#Cc2cccc(C(=O)N3CCN(c4ccccc4)CC3)c2)c1 [Entry 290]" test_value="10 to 100 µM"
compound="O=C(O)c1cccc(C#Cc2ccc(F)cc2)c1-n1cccc1 [Entry 71]" test_value="1 to 10 µM"
compound="COc1cc(-c2c(C#Cc3cccc(O)c3)cccc2C(=O)O)ccc1N [Entry 244]" test_value="10 to 100 µM"
compound="Cn1cc(-c2c(C#Cc3cscn3)cccc2C(=O)O)cn1 [Entry 219]" test_value="10 to 100 µM"
compound="O=C(O)c1cccc(C#Cc2ccccc2)c1-c1ccc2cnccc2c1 [Entry 203]" test_value="10 to 100 µM"
compound="O=C(O)c1cccc(C#Cc2ccncc2)c1-n1cncn1 [Entry 293]" test_value="10 to 100 µM"
compound="O=C(O)c1cccc(C#Cc2cccnc2)c1 [Entry 91, 3-[2-(pyridin-3-yl)ethynyl]benzoic acid]" test_value="1 to 10 µM"
compound="O=C(O)c1cccc(CCc2ccccc2)c1N1CCCC1 [Entry 148]" test_value="10 to 100 µM"
